- EXPERIMENTAL TARGET: UniProtKB P34998
- Sequence (P34998 whole entry): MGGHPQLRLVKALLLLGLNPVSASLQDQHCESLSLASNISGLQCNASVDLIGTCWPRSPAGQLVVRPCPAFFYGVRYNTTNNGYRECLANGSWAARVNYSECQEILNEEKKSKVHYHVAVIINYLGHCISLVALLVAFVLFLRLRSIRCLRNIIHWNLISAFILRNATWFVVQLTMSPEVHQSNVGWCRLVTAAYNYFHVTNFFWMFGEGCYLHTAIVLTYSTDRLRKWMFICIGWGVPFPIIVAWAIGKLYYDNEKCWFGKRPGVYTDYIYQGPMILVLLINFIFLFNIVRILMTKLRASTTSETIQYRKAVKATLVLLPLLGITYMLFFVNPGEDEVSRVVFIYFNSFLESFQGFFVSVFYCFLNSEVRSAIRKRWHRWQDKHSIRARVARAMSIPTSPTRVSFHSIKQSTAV
Recorded Ki for compounds tested on UniProtKB P34998, drawn from a number of studies.
PROPERTY: Ki (nM)

Consider the worked cases shown below.
Prompt: For the compound "Cc1cc(C)c(-n2c3ccccc3n3c(CN(CC4CC4)CC4CC4)c(C(F)(F)F)nc23)c(C)c1" , what Ki is on record?
Completion: 11

Prompt: Same read-out for "CCCCN(CC)c1nc(C)nc2c1nc(OC)n2-c1ccc(C(C)C)cc1Br" ?
Completion: 1.5

Prompt: Same read-out for "CCCN(c1nc(-c2ccc(Cl)cc2OC)n(C)n1)C(C(C)C)C(C)C" ?
Completion: 910

Prompt: Same read-out for "CCCN(CC)c1cc(C)nc2c(-c3ccc(Cl)cc3Cl)nn(C)c12" ?
Completion: 4.1

Prompt: Same read-out for "CCCCCN(CCC)c1cc(C)nc2c(-c3ccc(Cl)cc3Cl)nn(C)c12" ?
Completion: 1.2

Prompt: Same read-out for "CCCN(CC1CC1)c1cc(C)nc2c(-c3ccc(Cl)cc3Cl)nn(C)c12" ?
Completion: 1.58

[I] CCCN(CC1CC1)c1nc(C)nc2c1n(C)c(=O)n2-c1ccc(C(C)C)cc1Br
[II] CCCN(CCC)c1c(CC(C)(C)O)nc(-c2c(C)cc(C)cc2OC)nc1OC
[III] CCCN(CC(F)(F)F)C(=O)c1c(CC)nc2n1CCN2c1c(C)cc(C)cc1C
Prompt: Give the ascending ranking of the items by reported Ki. Ranked list of labels, please, in the requested order.
Completion: I, III, II
(I: 5.7 nM, III: 61 nM, II: 604 nM)

[I] Cc1cc(C)c(N2CCCn3c2nc(C)c3C(=O)N(CC2CC2)CC2CC2)c(C)c1
[II] CCCCN(Cc1ccccc1)c1nc(C)nc(Nc2c(C)cc(C)cc2C)n1
Prompt: Would you kindly point out which of I and II has the smaller Ki figure? Give the label of your selection.
Completion: II

[A] Cc1cc2c3c(n1)c(-c1ccc(Cl)cc1Cl)nn3CCN2CC1CC1
[B] CCN(Cc1c(C(F)(F)F)nc2n(-c3c(C)cc(C)cc3C)c(Cl)cn12)CC1CCC1
[C] CCCN(CC1CC1)c1nc(C)nc(Nc2c(Cl)cc(Cl)cc2Cl)c1CC
Prompt: Kindly order the items shown according to Ki, from the highest value down. Ranked list of labels, please, in the requested order.
Completion: A, B, C

[1] CCc1nc2n(c1C(=O)N(CC1CC1)CC(F)(F)F)CCN2c1c(C)cc(C)cc1Cl
[2] CCCN(CC1CC1)C(=O)c1c(C)nc2n(-c3c(C)cc(C)cc3C)c3ccc(F)cc3n12
Prompt: Would you kindly point out which of 1 and 2 has the smaller Ki figure? Give the label of your selection.
Completion: 1
